Attribution: PubChem BioAssay (NCI)

In this section, each of the molecules is paired with its reported TGI.
Test system: SK-MEL-2 melanoma
Assay: NCI tumour cell line growth inhibition, 48 h
Property measured: TGI

INSERT INTO results (molecule, experimental_system, property_measured, reported_result) VALUES
  ('C=CCc1cccc(C=O)c1O', 'SK-MEL-2 melanoma', 'TGI', '> 100 µM'),
  ('Cc1ccc(-c2n[nH]c(=O)n2/N=C\c2ccccc2O)cc1', 'SK-MEL-2 melanoma', 'TGI', '> 100 µM'),
  ('Cc1ccc(S(=O)c2ccccc2[N+](=O)[O-])cc1 (configuration not stated)', 'SK-MEL-2 melanoma', 'TGI', '> 100 µM'),
  ('O=C1c2ccccc2-c2nnc3c(c21)Cc1ccccc1C3', 'SK-MEL-2 melanoma', 'TGI', '> 10 µM'),
  ('NCCCCCC(CCN)SCC1OC(n2cnc3c(N)ncnc32)C(O)C1O (configuration not stated)', 'SK-MEL-2 melanoma', 'TGI', '> 1500 µM'),
  ('O=c1c2ccccc2nc(-c2cccc([N+](=O)[O-])c2)n1O', 'SK-MEL-2 melanoma', 'TGI', '91.1 µM'),
  ('O=P1(NCCCl)OCCCN1CCCl (configuration not stated)', 'SK-MEL-2 melanoma', 'TGI', '419 µM');

---

Test system: SK-MEL-2 melanoma
Experiment: NCI tumour cell line growth inhibition, 48 h
Known GI50 of a selection of molecules
Property measured: GI50

INSERT INTO assay_data (entry_smiles, property_measured, reported_result) VALUES
  ('CNC(=O)Oc1cc(C(C)C)ccc1Sc1ccc(C(C)C)cc1OC(=O)NC', 'GI50', '4.21 µM'),
  ('C/C(=C\C(=O)O[C@H]1[C@@H]2[C@H](C)CC[C@H]2[C@]2(C)O[C@@]1(C1CCCCC1)C[C@H]2OC(=O)CO)c1ccccc1', 'GI50', '7.05 µM'),
  ('NS(=O)(=O)c1ccc(N(/C=C/C(=O)C(F)(F)F)CC(=O)c2ccc(F)cc2)cc1', 'GI50', '26.1 µM'),
  ('CCOC(=O)c1noc2c1CCc1c-2cn(Cc2ccc(OC)cc2)c1-c1cc(OC)c(OC)c(OC)c1', 'GI50', '4.29 µM');

---

Tested on: HOP-92 NSCLC
Assay: NCI tumour cell line growth inhibition, 48 h
Property measured: TGI

INSERT INTO measurements (compound, experimental_system, reported_result) VALUES
  ('C/C(=N/NC(=O)c1ccccc1S(N)(=O)=O)C(CN1CCCCC1)C(C1=C(O)C2C=CC=CC2OC1=O)c1ccccc1 (configuration not stated)', 'HOP-92 NSCLC', '77.1 µM'),
  ('CCOC(=O)CC1=N/C(=N/C(=N)N[N+](=O)[O-])SC1', 'HOP-92 NSCLC', '> 100 µM'),
  ('COC(=O)C(=O)C(C(=O)C(=O)Nc1ccc(Cl)c(Cl)c1)c1nc2ccc(C(=O)c3ccccc3)cc2[nH]c1=O (configuration not stated)', 'HOP-92 NSCLC', '> 100 µM'),
  ('OCC(O)COCn1cc(Cn2ncc3c(SCc4ccccc4)ncnc32)nn1 (configuration not stated)', 'HOP-92 NSCLC', '> 100 µM'),
  ('NS(=O)(=O)c1ccc(NC(=S)NC(=O)Nc2ccc(Cl)c(Cl)c2)cc1', 'HOP-92 NSCLC', '48.6 µM'),
  ('COc1ccc(-c2nc3sc(-c4cc(OC)c(OC)c(OC)c4)nn3c2/C=C2/C(=O)Nc3ccc(F)cc32)cc1', 'HOP-92 NSCLC', '9.48 µM'),
  ('COc1ccc(C2COc3c(ccc(OC)c3OC)C2=O)cc1OC (configuration not stated)', 'HOP-92 NSCLC', '> 100 µM'),
  ('Nc1c(C(=O)Nc2cccc(Cl)c2)sc2nc3c(cc12)C(=O)CCC3', 'HOP-92 NSCLC', '> 100 µM'),
  ('O=C(CCc1n[nH]c(=S)o1)Nc1cc(Cl)ccc1Cl', 'HOP-92 NSCLC', '> 100 µM'),
  ('O=C(O)/C=C\C(=O)Nc1ccc2c(c1)-c1ccccc1C2', 'HOP-92 NSCLC', '> 100 µM'),
  ('O=C1c2cc(Br)ccc2-c2ccc3c4ccc5c6c(ccc(c7ccc1c2c73)c64)C(=O)c1cc(Br)ccc1-5', 'HOP-92 NSCLC', '> 100 µM'),
  ('CC(C)=CCC[C@@H](C)[C@H]1CC[C@@]2(C)[C@@H]3CC[C@H]4C(C)(C)[C@@H](O)CC[C@@]45C[C@@]35CC[C@]12C', 'HOP-92 NSCLC', '44.2 µM'),
  ('CN(C)c1cccc(-c2cc(=S)c3cc4c(cc3[nH]2)OCO4)c1', 'HOP-92 NSCLC', '> 100 µM'),
  ('CN1CCN(Cc2ccc(NC(=O)c3cncc(C#Cc4cnc(N)c5ncccc45)c3)cc2C(F)(F)F)CC1', 'HOP-92 NSCLC', '1.24 µM'),
  ('CC1(C)CNC(=O)C2(CCCO2)CNC(C)(C)CNC(=O)C2(CCCO2)CN1 (configuration not stated)', 'HOP-92 NSCLC', '> 10 µM'),
  ('CCOC(=O)c1noc2c1CCc1c-2cn(Cc2ccc(OC)cc2)c1-c1cc(OC)c(OC)c(OC)c1', 'HOP-92 NSCLC', '> 100 µM'),
  ('O=C(O)CN1CCSc2ccccc2CN(CC(=O)O)CCSc2ccccc2C1', 'HOP-92 NSCLC', '> 100 µM'),
  ('CCCc1nnc2sc(COc3ccc(OCc4nn5c(CCC)nnc5s4)c(Cl)c3)nn12', 'HOP-92 NSCLC', '80.6 µM'),
  ('CC[C@@H]1/C=C/C=C/C[C@H](C)[C@@H](O)[C@@H](C)C(=O)[C@H](C)[C@@H](O)[C@H](C)C(=O)[C@H](C)[C@@H](O)[C@H](C)/C=C/C(=O)O[C@H]2[C@@H](C)[C@@H](CC1)O[C@@]1(CC[C@@H](C)[C@@H](CC(C)O)O1)[C@@H]2C (some centres not stated)', 'HOP-92 NSCLC', '> 20 µM'),
  ('O=C1c2ccccc2-c2nnc3c(c21)Cc1ccccc1C3', 'HOP-92 NSCLC', '> 10 µM'),
  ('N/N=c1/nc2n(c3ncccc13)C=CNN2', 'HOP-92 NSCLC', '> 100 µM'),
  ('CCC(=C(c1ccc(OCCN2CCCCC2)cc1)c1ccc(OCCN2CCCCC2)cc1)c1ccc(Cl)cc1', 'HOP-92 NSCLC', '> 16.7 µM'),
  ('O=C1C2C3C4C1C1C2[C@H](OCc2ccccc2)C3C1[C@H]4OCc1ccccc1 (some centres not stated)', 'HOP-92 NSCLC', '66.3 µM'),
  ('COC(=O)/C=C1\SC2(OC1=Nc1ccccc1)C1CC3CC(C1)CC2C3 (configuration not stated)', 'HOP-92 NSCLC', '> 100 µM'),
  ('CNC(=O)Oc1cc(C(C)C)ccc1Sc1ccc(C(C)C)cc1OC(=O)NC', 'HOP-92 NSCLC', '9.85 µM'),
  ('N#CCCNc1nonc1-c1nc2ccccc2n1CC(=O)c1ccc(N)cc1', 'HOP-92 NSCLC', '0.456 µM'),
  ('CC(=O)OC(C)(C)C1CC[C@]2(C)/C=C/C(C)C[C@@H](O)/C=C(\C)CC(O)C12 (some centres not stated)', 'HOP-92 NSCLC', '> 100 µM'),
  ('COc1cc([C@@H]2c3cc4c(cc3[C@H](OC3OC5COC(c6ccco6)OC5C(O)C3O)C3COC(=O)[C@@H]32)OCO4)cc(OC)c1OC (some centres not stated)', 'HOP-92 NSCLC', '> 100 µM'),
  ('O=c1[nH]c(=S)[nH]cc1CN1CCOCC1', 'HOP-92 NSCLC', '> 100 µM'),
  ('CCCCn1c(=O)[nH]c(N)c([C@@H]2c3c([nH]c(=O)n(CCCC)c3=O)Oc3ccc4ccccc4c32)c1=O', 'HOP-92 NSCLC', '6.5 µM'),
  ('COc1ccc(C(=O)C(C(=O)CCC(=O)Nc2ccc(Cl)c(Cl)c2)c2ccc(OC)cc2)cc1 (configuration not stated)', 'HOP-92 NSCLC', '> 100 µM'),
  ('C[N+]1([O-])C2CCC1CC(OC(=O)C(CO)c1ccccc1)C2 (configuration not stated)', 'HOP-92 NSCLC', '> 100 µM'),
  ('CC(NCc1c(O)ccc2c(-c3ccccc3)cc(=O)oc12)C(=O)O (configuration not stated)', 'HOP-92 NSCLC', '> 100 µM'),
  ('C=C1c2nc3ccccc3n2C=C(c2ccc(OC)cc2)N1c1ccc(OCCN2CCCCC2)cc1', 'HOP-92 NSCLC', '> 82 µM'),
  ('C/C(=C\C(=O)O[C@H]1[C@@H]2[C@H](C)CC[C@H]2[C@]2(C)O[C@@]1(C1CCCCC1)C[C@H]2OC(=O)CO)c1ccccc1', 'HOP-92 NSCLC', '8.09 µM'),
  ('Cn1cc(C2NC(=O)c3ccccc3N2)c2ccccc21 (configuration not stated)', 'HOP-92 NSCLC', '> 100 µM'),
  ('O=P1(NCCCl)OCCCN1CCCl (configuration not stated)', 'HOP-92 NSCLC', '367 µM');
